Experiment: Solubility of the compound in pH 7.4 PBS buffer
Format: physicochemical
Reported endpoint: solubility (µM)

Qu. Give the reported value of solubility for this record: Cc1cc(C)cc(Nc2ncc(-c3ccccc3)cc2C#N)c1
Ans. 4

I. Cc1cc(C)cc(Nc2nc(C)c(-c3ccccc3)cc2C#N)c1
II. Cc1nc(Nc2cccc(C(C)C)c2)c(C#N)cc1-c1ccccc1
III. Cc1ccnc(Nc2ncc(-c3ccccc3)cc2C#N)c1
Qu. Sort these molecules on solubility so the largest reading comes first. Would you mind listing the labels in the order requested?
Ans. III, I, II

====

Target: Nuclear factor erythroid 2-related factor 2 (Homo sapiens)
Assay: Activation of Nrf2 (unknown origin) assessed as cellular activity
Set-up: concentration or dose not given beside the values
Settings: filed as activator
Reported endpoint: Activity (%)

Here's what some known entries look like.
Qu. Using the record for Cc1cc(C)cc(Nc2nc(C)c(-c3ccccc3)cc2C(N)=O)c1 , state its measured Activity.
Ans. -18.1

Qu. Identify the reported Activity for the following entry. N#Cc1c(-c2ccccc2)ccnc1Nc1cc(CO)ccn1
Ans. -31.8

Qu. Name the recorded Activity of the item N#Cc1c(-c2ccccc2)ccnc1Nc1ccccn1 in your answer.
Ans. -78.1

Qu. Please supply the value of reported Activity for the item Cc1cccc(Nc2ncc(-c3ccccc3)cc2C#N)n1
Ans. -13.8

Qu. Quote Activity reported for Cc1cc(Nc2ncc(-c3ccccc3)cc2C#N)ccn1 please.
Ans. -20.3

A. Cc1cc(C)cc(Nc2ncc(-c3ccc(Cl)cc3)cc2C#N)c1
B. COc1ccc(-c2cnc(Nc3cc(C)cc(C)c3)c(C#N)c2)cc1
Qu. Look at A and B . Which one has the lower recorded Activity number? Respond using the label that marks the chosen record.
Ans. A
(A: -4.9%, B: -1.5%)

I. Cc1cc(C)cc(Oc2ncc(-c3ccccc3)cc2C#N)c1
II. N#Cc1cc(-c2ccccc2)cnc1Nc1cc(C2CC2)ccn1
III. Cc1cc(N)cc(Nc2nc3ccccc3cc2C#N)c1
Qu. Please list these compounds in decreasing order of Activity. Answer format: list of labels, ordered as asked.
Ans. III, II, I
(III: -9.5%, II: -23.6%, I: -45.4%)

I. Cc1cc(C)cc(Cc2ncc(-c3ccccc3)cc2C#N)c1
II. CCOC(=O)c1ccnc(Nc2ncc(-c3ccccc3)cc2C#N)c1
III. Cc1cc(C)cc(Nc2ncc(-c3cccnc3)cc2C#N)c1
Qu. Please order the records by their reported Activity, lowest number first. Output the labels ranked as instructed.
Ans. I, III, II
(I: -33.9%, III: -8.7%, II: -0.1%)

a. COc1cc(OC)cc(-c2cnc(Nc3cc(C)cc(C)c3)c(C#N)c2)c1
b. Cc1cc(C)cc(Nc2nc(C)c(C(C)C)cc2C#N)c1
c. N#Cc1cc(-c2ccccc2)cnc1Nc1ccc(Cl)nn1
d. Cc1cc(C)cc(Nc2nc3ncccc3cc2C#N)c1
e. COc1cc(Nc2ncc(-c3ccccc3)nc2C#N)cc(OC)c1
Qu. Order each entry by recorded Activity, climbing from the minimum. Provide the labels, sequenced as the question asks.
Ans. c, e, d, a, b

1. COc1ccnc(Nc2nccc(-c3ccccc3)c2C#N)c1
2. Cc1ccc(-c2cnc(Nc3cc(C)cc(C)c3)c(C#N)c2)cc1
3. Cc1cc(C)cc(Nc2ncc(-c3ccccc3)nc2C#N)c1
4. CCCc1nc(Nc2cc(C)cc(C)c2)c(C#N)cc1-c1ccccc1
5. Cc1cc(C)cc(Nc2ncc(-c3ccncc3)cc2C#N)c1
Qu. Sort low-to-high on Activity, please. List each label, following the requested order.
Ans. 5, 2, 4, 3, 1
(5: -42.8%, 2: -29.6%, 4: -11.8%, 3: -7.8%, 1: -4.5%)
